Tested on: 3T3 cells
Assay: Cytotoxicity against 3T3 cells
Type: cell-based
pEC50: −log10 of the molar value.
# binarize pEC50: threshold 4 inclusive, high side class 1, low side class 0

Please review the entries below; each comes with its answer.
| compound | experimental system | label value |
| --- | --- | --- |
| N=C(N)NCCCOc1cccc(-c2cncc(-c3ccc(-c4cncc(-c5cccc(OCCCNC(=N)N)c5)c4)s3)c2)c1 [Compound 227] | 3T3 cells | class 1 |
| NCCc1ccc(-c2ccc(-c3ccc(CCN)cc3)s2)cc1 [Compound 247] | 3T3 cells | class 1 |
| CC(C)(C)c1cc(NC(=O)c2cccc(C#N)c2)c(SCCN)c(NC(=O)c2cc(C(=O)Nc3cc(C(C)(C)C)cc(NC(=O)c4cccc(C#N)c4)c3SCCN)ncn2)c1 [Compound 198] | 3T3 cells | class 1 |
| CC(C)(C)c1cc(N)c(SCCN)c(NC(=O)c2cccc(C(=O)Nc3cc(C(C)(C)C)cc(N)c3SCCN)n2)c1 [Compound 117] | 3T3 cells | class 1 |
| NCCc1cccc(-c2ccc(-c3cccc(CCN)c3)s2)c1 [Compound 236] | 3T3 cells | class 1 |

*Q* Given the entry CN(C)C1CCN(c2ccc3sc4ccc(N5CCC(N(C)C)CC5)cc4c3c2)CC1 [Compound 297] , answer whether its pEC50 meets or surpasses 4.
*A* class 0

*Q* Is pEC50 at least 4? Consider N=C(N)NCCc1ccccc1-c1ccc(-c2ccccc2CCNC(=N)N)s1 [Compound 251]
*A* class 0
